Field: IC50. Provide a value for each of the molecules that follow.
system tested: HCT116 TK (cellular transketolase, colon carcinoma HCT116) (Homo sapiens)
Construct: endogenous in cells; host or cells: HCT116 colon carcinoma cells
Sequence (P29401 1-623): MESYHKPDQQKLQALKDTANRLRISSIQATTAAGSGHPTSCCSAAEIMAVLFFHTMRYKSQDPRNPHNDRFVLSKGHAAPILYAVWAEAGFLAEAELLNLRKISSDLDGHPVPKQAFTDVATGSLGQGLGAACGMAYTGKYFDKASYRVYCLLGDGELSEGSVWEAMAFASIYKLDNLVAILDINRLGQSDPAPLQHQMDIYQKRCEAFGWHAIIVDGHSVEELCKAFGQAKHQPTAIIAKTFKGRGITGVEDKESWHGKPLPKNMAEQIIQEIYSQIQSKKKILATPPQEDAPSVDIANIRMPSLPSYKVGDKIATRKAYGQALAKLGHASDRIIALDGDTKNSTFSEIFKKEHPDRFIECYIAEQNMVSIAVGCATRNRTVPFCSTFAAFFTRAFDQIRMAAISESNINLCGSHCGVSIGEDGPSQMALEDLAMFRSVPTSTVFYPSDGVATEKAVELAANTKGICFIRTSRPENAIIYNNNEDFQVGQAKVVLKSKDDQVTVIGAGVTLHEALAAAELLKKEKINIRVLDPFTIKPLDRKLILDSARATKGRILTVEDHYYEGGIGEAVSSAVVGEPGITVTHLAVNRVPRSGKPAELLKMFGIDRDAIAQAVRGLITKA
run description: Cellular assay: transketolase activity in lysates of treated HCT116 cells
Assay type: cell-based
study conditions: colon carcinoma HCT116, thiamine-free DMEM, 48 hours treatment, mean
Quick note: number first, unit second.

State its IC50 on HCT116 TK (cellular transketolase, colon carcinoma HCT116) (Homo sapiens): `CC(=O)OCC/C(SCOC(=O)C(C)(C)C)=C(\C)N(C=O)Cc1ccc(C)nc1N`
25 nM

State its IC50 on HCT116 TK (cellular transketolase, colon carcinoma HCT116) (Homo sapiens): `C/C(=C(\CCO)SSCCC(=O)O)N(C=O)Cc1ccc(C)nc1N`
52 nM

State its IC50 on HCT116 TK (cellular transketolase, colon carcinoma HCT116) (Homo sapiens): `CC(=O)OCC/C(SCOC(=O)N(C)C)=C(\C)N(C=O)Cc1ccc(C)nc1N`
26300 nM

State its IC50 on HCT116 TK (cellular transketolase, colon carcinoma HCT116) (Homo sapiens): `C/C(=C(\CCO)SCCS(=O)(=O)c1ccccc1)N(C=O)Cc1ccc(C)nc1N`
1870 nM

State its IC50 on HCT116 TK (cellular transketolase, colon carcinoma HCT116) (Homo sapiens): `C/C(=C(\CCO)SS/C(CCO)=C(/C)N(C=O)Cc1cccnc1N)N(C=O)Cc1cccnc1N`
479 nM

State its IC50 on HCT116 TK (cellular transketolase, colon carcinoma HCT116) (Homo sapiens): `Cc1ccc(CN(C=O)/C=C(/CCO)SS/C(=C\N(C=O)Cc2ccc(C)nc2N)CCO)c(N)n1`
102000 nM

State its IC50 on HCT116 TK (cellular transketolase, colon carcinoma HCT116) (Homo sapiens): `C/C(=C(\CCOC(=O)c1ccccc1)SC(=O)c1ccccc1)N(C=O)Cc1ccc(C)nc1N`
28 nM

State its IC50 on HCT116 TK (cellular transketolase, colon carcinoma HCT116) (Homo sapiens): `CCOP(=O)(OCC)OCC/C(SC(=O)c1ccccc1)=C(\C)N(C=O)Cc1ccc(C)nc1N`
7160 nM

State its IC50 on HCT116 TK (cellular transketolase, colon carcinoma HCT116) (Homo sapiens): `CCCSS/C(CCOP(=O)(OCC)OCC)=C(/C)N(C=O)Cc1ccc(C)nc1N`
1040 nM

State its IC50 on HCT116 TK (cellular transketolase, colon carcinoma HCT116) (Homo sapiens): `CCCCS/C(CCO)=C(/C)N(C=O)Cc1ccc(C)nc1N`
6460 nM

State its IC50 on HCT116 TK (cellular transketolase, colon carcinoma HCT116) (Homo sapiens): `C/C(=C(\CCO)SCOC(=O)N(C)C)N(C=O)Cc1ccc(C)nc1N`
507 nM

State its IC50 on HCT116 TK (cellular transketolase, colon carcinoma HCT116) (Homo sapiens): `C/C(=C(\CCO)SS/C(CCO)=C(/C)N(C=O)Cc1ccc(C)nc1N)N(C=O)Cc1ccc(C)nc1N`
10 nM

State its IC50 on HCT116 TK (cellular transketolase, colon carcinoma HCT116) (Homo sapiens): `CC(=O)N(Cc1ccc(C)nc1N)/C(C)=C(/CCO)SS/C(CCO)=C(/C)N(Cc1ccc(C)nc1N)C(C)=O`
32 nM

State its IC50 on HCT116 TK (cellular transketolase, colon carcinoma HCT116) (Homo sapiens): `C/C(=C(\CCO)SCCN1CCCCC1)N(C=O)Cc1ccc(C)nc1N`
3700 nM

State its IC50 on HCT116 TK (cellular transketolase, colon carcinoma HCT116) (Homo sapiens): `C/C(=C(\CCO)SSCCN1CCCC1)N(C=O)Cc1ccc(C)nc1N`
198 nM

State its IC50 on HCT116 TK (cellular transketolase, colon carcinoma HCT116) (Homo sapiens): `CC(=O)OCC/C(SC(C)=O)=C(\C)N(C=O)Cc1ccc(C)nc1N`
50 nM

State its IC50 on HCT116 TK (cellular transketolase, colon carcinoma HCT116) (Homo sapiens): `C/C(=C(\CCO)SCOC(=O)C(C)(C)C)N(C=O)Cc1ccc(C)nc1N`
116 nM

State its IC50 on HCT116 TK (cellular transketolase, colon carcinoma HCT116) (Homo sapiens): C/C(=C(\CCO)SSCC1CCCO1)N(C=O)Cc1ccc(C)nc1N (centres unmarked)
24 nM

State its IC50 on HCT116 TK (cellular transketolase, colon carcinoma HCT116) (Homo sapiens): `CNC(=O)OCS/C(CCO)=C(/C)N(C=O)Cc1ccc(C)nc1N`
50 nM

State its IC50 on HCT116 TK (cellular transketolase, colon carcinoma HCT116) (Homo sapiens): `CC(=O)OCC/C(SS/C(CCOC(C)=O)=C(/C)N(C=O)Cc1ccc(C)nc1N)=C(\C)N(C=O)Cc1ccc(C)nc1N`
8 nM
